# Test system: S. pneumoniae
# TEST_METHOD_NOTES: Minimal inhibitory concentration, microbroth dilution
# Format: cell-based
# CONDITION_SET: Streptococcus pneumoniae; MIC; read-out: Minimal Inhibitory Concentrations (μM) S. pneumoniae
Numbered stars: 1 amine (or outer) side, 2 acyl side, 3 side chain; on linkers, the order of the positions; unused ones are H or OH. Bridge positions count the residues as written; N and C are the ends. Square brackets hold non-standard residues; d marks the D form. Peptide text beside a SMILES is read from it. * marks the point of attachment. Piperazine(2S-CO,4-Me) = CN1CCN[C@H](C(=O)O)C1; NH(1,3-benzodioxol-5-yl) = c1cc2c(cc1N*)OCO2; Phe(3,5-F2) = N[C@@H](Cc1cc(F)cc(F)c1)C(=O)O; Phe(3-OMe) = COc1cccc(C[C@H](N)C(=O)O)c1; Phe(3-Me) = Cc1cccc(C[C@H](N)C(=O)O)c1; NH(4-Cl-2-F-phenyl) = Fc1cc(Cl)ccc1N*; Pro(4R-Me) = C[C@H]1CN[C@H](C(=O)O)C1; Hyp = O=C(O)[C@@H]1C[C@@H](O)CN1; aThr = C[C@H](O)[C@H](N)C(=O)O; Pip = O=C(O)[C@@H]1CCCCN1; CO = O=C([*:1])[*:2]
RESULT_TYPE: MIC (µM)
Give the value in µM but do not write µM after it.

Request: Give measured MIC for COc1cccc(C[C@H](NC(=O)Nc2ccc(Cl)cc2F)C(=O)N[C@H]2COC(=O)[C@@H]3C[C@@H](C)CN3C(=O)[C@H](C)NC(=O)[C@@H]3CN(C)CCN3C(=O)[C@@H]3CCCN3C2=O)c1 [Compound 19] ({NH(4-Cl-2-F-phenyl)-CO}-[Phe(3-OMe)]SP[Piperazine(2S-CO,4-Me)]A[Pro(4R-Me)]; ester 2-C) (S. pneumoniae).
Response: 2.5

Request: Give measured MIC for Cc1cccc(C[C@H](NC(=O)Nc2ccc3c(c2)OCO3)C(=O)N[C@H]2COC(=O)[C@@H]3C[C@@H](C)CN3C(=O)[C@H](C)NC(=O)[C@@H]3CN(C)CCN3C(=O)[C@@H]3CCCN3C2=O)c1 [Compound 17] ({NH(1,3-benzodioxol-5-yl)-CO}-[Phe(3-Me)]SP[Piperazine(2S-CO,4-Me)]A[Pro(4R-Me)]; ester 2-C) (S. pneumoniae).
Response: 0.313

Request: Give measured MIC for Cc1cccc(C[C@H](NC(=O)Nc2ccc(Cl)cc2F)C(=O)N[C@@H]2C(=O)N3CCC[C@H]3C(=O)N3CCN(C)C[C@H]3C(=O)N[C@@H](C)C(=O)N3C[C@H](C)C[C@H]3C(=O)O[C@H]2C)c1 [Compound 11] ({NH(4-Cl-2-F-phenyl)-CO}-[Phe(3-Me)][aThr]P[Piperazine(2S-CO,4-Me)]A[Pro(4R-Me)]; ester 2-C) (S. pneumoniae).
Response: 0.039

Request: Give measured MIC for Cc1cccc(C[C@H](NC(=O)Nc2ccc(Cl)cc2F)C(=O)N[C@@H]2C(=O)N3C[C@H](O)C[C@H]3C(=O)N3CCCC[C@H]3C(=O)N[C@@H](C)C(=O)N3C[C@H](C)C[C@H]3C(=O)O[C@H]2C)c1 [Compound 6] ({NH(4-Cl-2-F-phenyl)-CO}-[Phe(3-Me)][aThr][Hyp][Pip]A[Pro(4R-Me)]; ester 2-C) (S. pneumoniae).
Response: 0.039

Request: Give measured MIC for Cc1cccc(C[C@H](NC(=O)Nc2ccc(Cl)cc2F)C(=O)N[C@H]2COC(=O)[C@@H]3C[C@@H](C)CN3C(=O)[C@H](C)NC(=O)[C@@H]3CCCCN3C(=O)[C@@H]3C[C@H](N)CN3C2=O)c1 (S. pneumoniae).
Response: 0.156

Request: Give measured MIC for C[C@@H]1C[C@H]2C(=O)OC[C@H](NC(=O)[C@H](Cc3cc(F)cc(F)c3)NC(=O)Nc3ccc(Cl)cc3F)C(=O)N3CCC[C@H]3C(=O)N3CCN(C)C[C@H]3C(=O)N[C@@H](C)C(=O)N2C1 [Compound 34] ({NH(4-Cl-2-F-phenyl)-CO}-[Phe(3,5-F2)]SP[Piperazine(2S-CO,4-Me)]A[Pro(4R-Me)]; ester 2-C) (S. pneumoniae).
Response: 0.039

###

# TARGET_OF_ASSAY: S. aureus ClpP (Sa-ClpP) (Staphylococcus aureus, UniProt Q2G036)
# Sequence (Q2G036 whole entry): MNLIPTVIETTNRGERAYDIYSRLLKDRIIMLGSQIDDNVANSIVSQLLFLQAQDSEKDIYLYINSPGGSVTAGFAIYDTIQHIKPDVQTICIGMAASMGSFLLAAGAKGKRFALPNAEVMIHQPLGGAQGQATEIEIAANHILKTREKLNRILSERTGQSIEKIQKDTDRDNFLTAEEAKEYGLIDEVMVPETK
# TEST_METHOD_NOTES: Casein-BODIPY digestion assay (ClpP activation)
# Experimental: The compounds were assayed in a casein digestion assay in order to determine their effect on ClpP activation. Briefly, the assay was carried out using S. aureus ClpP (“Sa-ClpP”) overexpressed in E. coli BL21 (DE3) and purified in a two-step process. Purity of the protein was assessed through SDS PAGE analysis. […] Velocity of each reaction was calculated and data was fit to a dose response curve using GraphPad Prism® software (GraphPad Software, Inc., La Jolla, Calif.). […]
Numbered stars: 1 amine (or outer) side, 2 acyl side, 3 side chain; on linkers, the order of the positions; unused ones are H or OH. Bridge positions count the residues as written; N and C are the ends. Square brackets hold non-standard residues; d marks the D form. Peptide text beside a SMILES is read from it. * marks the point of attachment. Piperazine(2S-CO,4-Me) = CN1CCN[C@H](C(=O)O)C1; Phe(3-Me) = Cc1cccc(C[C@H](N)C(=O)O)c1; Pro(4S-Me) = C[C@@H]1CN[C@H](C(=O)O)C1; X4 = O=C1CN([*:1])[C@H](C(=O)[*:2])CN1; NH(4-Cl-2-F-phenyl) = Fc1cc(Cl)ccc1N*; Pro(4R-Me) = C[C@H]1CN[C@H](C(=O)O)C1; Hyp = O=C(O)[C@@H]1C[C@@H](O)CN1; NH(4-Cl-phenyl) = Clc1ccc(N*)cc1; NH(4-Et-phenyl) = CCc1ccc(N*)cc1; aThr = C[C@H](O)[C@H](N)C(=O)O; Pip = O=C(O)[C@@H]1CCCCN1; CO = O=C([*:1])[*:2]
# pEC50 per record follows
# log scale: pEC50 equals minus log10 of the concentration in mol/L

// solved cases for pEC50 follow
>  <COMPOUND>
Cc1cccc(C[C@H](NC(=O)Nc2ccc(Cl)cc2F)C(=O)N[C@H]2COC(=O)[C@@H]3C[C@@H](C)CN3C(=O)[C@H](C)NC(=O)[C@@H]3CN(C)CCN3C(=O)[C@@H]3CCCN3C2=O)c1 [Compound 13] ({NH(4-Cl-2-F-phenyl)-CO}-[Phe(3-Me)]SP[Piperazine(2S-CO,4-Me)]A[Pro(4R-Me)]; ester 2-C)

>  <TARGET_OF_ASSAY>
S. aureus ClpP (Sa-ClpP) (Staphylococcus aureus, UniProt Q2G036)

>  <RESULT_TYPE>
pEC50

>  <QUANTITATIVE_READOUT>
5.82

$$$$
>  <COMPOUND>
Cc1cccc(C[C@H](NC(=O)Nc2cccc(Cl)c2)C(=O)N[C@H]2COC(=O)[C@@H]3CCCN3C(=O)[C@H](C)NC(=O)[C@@H]3CCCCN3C(=O)[C@@H]3C[C@@H](O)CN3C2=O)c1

>  <TARGET_OF_ASSAY>
S. aureus ClpP (Sa-ClpP) (Staphylococcus aureus, UniProt Q2G036)

>  <RESULT_TYPE>
pEC50

>  <QUANTITATIVE_READOUT>
5.73

$$$$
>  <COMPOUND>
CCc1ccc(NC(=O)N[C@@H](Cc2cccc(C)c2)C(=O)N[C@@H]2C(=O)N3C[C@H](O)C[C@H]3C(=O)N3CCCC[C@H]3C(=O)N[C@@H](C)C(=O)N3C[C@@H](C)C[C@H]3C(=O)O[C@H]2C)cc1 [Compound 65] ({NH(4-Et-phenyl)-CO}-[Phe(3-Me)][aThr][Hyp][Pip]A[Pro(4S-Me)]; ester 2-C)

>  <TARGET_OF_ASSAY>
S. aureus ClpP (Sa-ClpP) (Staphylococcus aureus, UniProt Q2G036)

>  <RESULT_TYPE>
pEC50

>  <QUANTITATIVE_READOUT>
6.39

$$$$

Now look at this entry.
Request: Output pEC50 of Cc1cccc(C[C@H](NC(=O)Nc2ccc(Cl)cc2)C(=O)N[C@@H]2C(=O)N3CCC[C@H]3C(=O)N3CC(=O)NC[C@H]3C(=O)N[C@@H](C)C(=O)N3C[C@H](C)C[C@H]3C(=O)O[C@H]2C)c1 [Compound 75] ({NH(4-Cl-phenyl)-CO}-[Phe(3-Me)][aThr]P[X4]A[Pro(4R-Me)]; ester 2-C)
Response: 5.92

###

# Human per record follows
# TEST_METHOD_NOTES: Plasma protein binding, rapid equilibrium dialysis
# Format: in vitro ADME, human
# CONDITION_SET: human, 4 h, 10 μM, pH 7.4
Numbered stars: 1 amine (or outer) side, 2 acyl side, 3 side chain; on linkers, the order of the positions; unused ones are H or OH. Bridge positions count the residues as written; N and C are the ends. Square brackets hold non-standard residues; d marks the D form. Peptide text beside a SMILES is read from it. * marks the point of attachment. Piperazine(2S-CO,4-Me) = CN1CCN[C@H](C(=O)O)C1; NH(1,3-benzodioxol-5-yl) = c1cc2c(cc1N*)OCO2; X6 = O=C([C@@H]1CS(=O)(=O)CCN1[*:1])[*:2]; Phe(3-Me) = Cc1cccc(C[C@H](N)C(=O)O)c1; NH(4-Cl-2-F-phenyl) = Fc1cc(Cl)ccc1N*; Pro(4R-Me) = C[C@H]1CN[C@H](C(=O)O)C1; Hyp = O=C(O)[C@@H]1C[C@@H](O)CN1; NH(4-Et-phenyl) = CCc1ccc(N*)cc1; aThr = C[C@H](O)[C@H](N)C(=O)O; Pip = O=C(O)[C@@H]1CCCCN1; CO = O=C([*:1])[*:2]
Give the value in % but do not write % after it.

// solved cases for Human follow
>  <COMPOUND>
CCc1ccc(NC(=O)N[C@@H](Cc2cccc(C)c2)C(=O)N[C@@H]2C(=O)N3C[C@H](O)C[C@H]3C(=O)N3CCCC[C@H]3C(=O)N[C@@H](C)C(=O)N3C[C@H](C)C[C@H]3C(=O)O[C@H]2C)cc1 [Compound 25] ({NH(4-Et-phenyl)-CO}-[Phe(3-Me)][aThr][Hyp][Pip]A[Pro(4R-Me)]; ester 2-C)

>  <Human [%]>
99.2

$$$$
>  <COMPOUND>
Cc1cccc(C[C@H](NC(=O)Nc2ccc3c(c2)OCO3)C(=O)N[C@H]2COC(=O)[C@@H]3C[C@@H](C)CN3C(=O)[C@H](C)NC(=O)[C@@H]3CN(C)CCN3C(=O)[C@@H]3CCCN3C2=O)c1 [Compound 17] ({NH(1,3-benzodioxol-5-yl)-CO}-[Phe(3-Me)]SP[Piperazine(2S-CO,4-Me)]A[Pro(4R-Me)]; ester 2-C)

>  <Human [%]>
95.4

$$$$

Now look at this entry.
Request: Output Human of Cc1cccc(C[C@H](NC(=O)Nc2ccc(Cl)cc2F)C(=O)N[C@@H]2C(=O)N3CCC[C@H]3C(=O)N3CCS(=O)(=O)C[C@H]3C(=O)N[C@@H](C)C(=O)N3C[C@H](C)C[C@H]3C(=O)O[C@H]2C)c1 [Compound 40] ({NH(4-Cl-2-F-phenyl)-CO}-[Phe(3-Me)][aThr]P[X6]A[Pro(4R-Me)]; ester 2-C)
Response: 98.5
